Biological target: JAK1 (Homo sapiens (Human), UniProt P23458)
Sequence (P23458 875-1153): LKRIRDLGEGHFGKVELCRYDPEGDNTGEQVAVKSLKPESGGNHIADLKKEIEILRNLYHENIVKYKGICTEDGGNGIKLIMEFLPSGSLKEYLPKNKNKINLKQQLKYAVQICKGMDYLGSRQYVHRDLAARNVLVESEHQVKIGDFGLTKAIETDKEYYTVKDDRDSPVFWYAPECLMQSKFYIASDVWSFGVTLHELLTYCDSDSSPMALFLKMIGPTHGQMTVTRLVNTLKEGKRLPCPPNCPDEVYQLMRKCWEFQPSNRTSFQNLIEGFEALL
Experiment: Jak Biochemical HTRF Assay, JAK1
Conditions: HTRF biochemical assay, GST-tagged catalytic domain; top concentration tested […]; read-out: JAK1 IC50
Text: Jak Biochemical HTRF Assay Protocol Subsequent reagent additions employed an Agilent Bravo.
Measured parameter: pIC50
To interpret pIC50, take it as minus log10 of a concentration measured in moles per litre.

Lab note: measured pIC50 of COc1cc(N2CCC(CC#N)(n3cc(C(N)=O)c(Nc4ccc(F)cc4)n3)CC2)ccn1 was 9.70

Item: CC(C)(O)Cc1cccc(N2CCC(CC#N)(n3cc(C(N)=O)c(Nc4ccc(F)cc4)n3)CC2)n1 | pIC50: 8.30

pIC50 for CC(C)(C)OC(=O)N1CCC(CC#N)(n2cc(C(N)=O)c(Nc3cnc(C#N)nc3)n2)CC1 is 8.52

Query Cc1cc(Nc2nn(C3(CC#N)CCN(C(=O)OC(C)(C)C)CC3)cc2C(N)=O)ccn1 yields pIC50 of 7.82

Quick note, pIC50 for CS(=O)(=O)c1ccc(Nc2nn(C3(CC#N)CN(C(=O)Nc4cc(F)ccc4F)C3)cc2C(N)=O)cc1 landed at 7.72

Lab note: Cc1noc(-c2ccc(Nc3nn(C4(CC#N)CCN(C(=O)OC(C)(C)C)CC4)cc3C(N)=O)cc2)n1 gave pIC50 of 9.70

For N#CCC1(n2cc(C(N)=O)c(Nc3ccnc(F)c3)n2)CCC(NC2CCCCC2)CC1 (stereo not shown) [Example 40-51] the compound record lists pIC50 as 6.22

// pIC50 value for CC(C)[C@@H](O)C(=O)N1CCC(CC#N)(n2cc(C(N)=O)c(Nc3ccnc(F)c3)n2)CC1 : 8.70

Item: COc1cc(Nc2nn(C3(CC#N)CCN(C(=O)OC(C)(C)C)CC3)cc2C(N)=O)ccn1 | pIC50: 8.22

Lab note: N#CCC1(n2cc(C(N)=O)c(Nc3ccnc(F)c3)n2)CCC(NCC(F)(F)F)CC1 (stereo not shown) [Example 40-95] gave pIC50 of 7.55

Item: CC(C)(C)OC(=O)N1CCC(CC#N)(n2cc(C(N)=O)c(Nc3cccc(-c4ccc5ccccc5c4)c3)n2)CC1 | pIC50: 6.19

get_value(item= COc1ccc2cc(CN3CCC(CC#N)(n4cc(C(N)=O)c(Nc5ccccc5)n4)CC3)ccc2c1 , readout=pIC50) returns 7.62

pIC50 reading for N#CCC1(n2cc(C(N)=O)c(Nc3ccccc3)n2)CN(C(=O)OCCc2ccccc2)C1 : 7.12

Documented pIC50 of N#CCC1(n2cc(C(N)=O)c(Nc3ccnc(F)c3)n2)CCN(Cc2cocn2)CC1 : 8.22

Recorded result, N#CCC1(n2cc(C(N)=O)c(Nc3ccnc(F)c3)n2)CCN(Cc2ccc(O)cc2)CC1 , pIC50: 10.00

Sample CC(c1ccccc1)N1CCC(CC#N)(n2cc(C(N)=O)c(Nc3ccc(F)cc3)n2)CC1 (stereo not shown) ; pIC50 observed: 8.40

Briefly, pIC50 measured for Cc1cccc(N2CCC(CC#N)(n3cc(C(N)=O)c(Nc4ccc(F)cc4)n3)CC2)c1F : 8.00

Value of measured pIC50 for the entry CC(C)(C)OC(=O)N1CCC(CC#N)(n2cc(C(N)=O)c(Nc3cncc(Cl)c3)n2)CC1 : 9.05

The reported pIC50 of the compound N#CCC1(n2cc(C(N)=O)c(Nc3ccc(F)cc3)n2)CCN(CC2CCCCC2)CC1 was 8.22

Looking up N#CCC(=O)N1CCC(CC#N)(n2cc(C(N)=O)c(Nc3ccnc(F)c3)n2)CC1 , I found its pIC50 recorded as 9.70

Short answer for N#CCC1(n2cc(C(N)=O)c(Nc3ccc(F)cc3)n2)CCC(Nc2ccc(C(F)(F)F)cc2)CC1 (stereo not shown) : pIC50 was 6.86

Record summary for N#CC[C@]1(n2cc(C(N)=O)c(Nc3ccc(S(=O)(=O)C(F)F)cc3)n2)CC[C@H](N)CC1 [Example 41-2] : reported pIC50 = 7.07

The compound N#CCC1(n2cc(C(N)=O)c(Nc3ccccc3)n2)CCN(C(=O)c2ccncc2)CC1 showed pIC50 equal to 7.70

So, CCCNC(=O)N1CC(CC#N)(n2cc(C(N)=O)c(Nc3ccccc3)n2)C1 ? Its pIC50 was 8.15

Memo: N#CCC1(n2cc(C(N)=O)c(Nc3ccc(F)cc3)n2)CCN(c2cc(F)cc(F)c2)CC1 , reported pIC50: 8.52

response.value for N#CCC1(n2cc(C(N)=O)c(Nc3ccnc(F)c3)n2)CCC(NC2CCCCC2)CC1 (stereo not shown) [Example 40-23] (field: pIC50) = 8.70

// CNC(=O)c1ccc(Nc2nn(C3(CC#N)CCN(C(=O)OC(C)(C)C)CC3)cc2C(N)=O)cc1 : pIC50 value = 10.00

Lab note: measured pIC50 of N#CCC1(n2cc(C(N)=O)c(Nc3ccnc(F)c3)n2)CCN(Cc2ccnc3[nH]ccc23)CC1 was 8.70

pIC50 for N#CCC1(n2cc(C(N)=O)c(Nc3ccccc3)n2)CCN(S(=O)(=O)c2ccccc2Cl)CC1 is 8.52

For this compound ( CC(C)(C)OC(=O)N1CCC(CC#N)(n2cc(C(N)=O)c(Nc3ccc(Br)cc3)n2)CC1 ), measured pIC50 is 9.30

The reported value for N#CCC1(n2cc(C(N)=O)c(Nc3ccccc3)n2)CN(S(=O)(=O)c2ccco2)C1 in terms of pIC50 is 7.02
